# Experimental details: SRB cytotoxicity assay, PBMCs
# Format: cell-based, human
# Conditions used: human, peripheral blood mononuclear cells (PBMCs); PBMCs, 800 µg/mL; read-out: % Cell Viability (n = 5)
Readout name: viability at 48 h, 800 µg/mL

> print(dat)
                                   compound  value.observed
1  OC[C@H]1OC(O)[C@@H](O)[C@@H](O)[C@@H]1O (stereo partly shown)            106%

====

# Experimental details: SRB cytotoxicity assay, 3T3-L1 pre-adipocyte
# Type: cell-based, murine
# Conditions used: mouse, 3T3-L1 pre-adipocytes; 3T3-L1 Pre-adipocyte, 48 h, SRB
Readout name: IC20 at 48 h

> print(dat)
                                   compound  value.observed
1  OC[C@H]1OC(O)[C@@H](O)[C@@H](O)[C@@H]1O (stereo partly shown)    > 1000 µg/mL

====

# Experimental details: Hemolysis assay
# Format: cell-based, human
# Conditions used: human, 5% red blood cell suspension; 800 µg/mL, 5% RBCs, 37 °C, 3 h; read-out: % Hemolysis (n = 5)
Readout name: hemolysis at 3 h, 800 µg/mL (%)

> print(dat)
                                   compound  unit.of.measurement  value.observed
1  OC[C@H]1OC(O)[C@@H](O)[C@@H](O)[C@@H]1O (stereo partly shown)                    %            1.84

====

# Experimental details: SRB cytotoxicity assay, LX-2
# Type: cell-based, human
# Conditions used: human, LX-2 cells; LX-2, 48 h, SRB
Readout name: IC20 at 48 h

> print(dat)
                                   compound  readout.name  value.observed
1  OC[C@H]1OC(O)[C@@H](O)[C@@H](O)[C@@H]1O (stereo partly shown)  IC20 at 48 h    > 1000 µg/mL

Hey, just so you know, these numbers are from paper PMC11353420.
